assay: Blood concentrations and pharmacokinetics after 1 mg/kg i.v. in mice; type: in vivo, mouse; conditions: mouse, whole blood, iv, 1 mg/kg, mouse blood, mean, read-out: AUC0-tlast, Mean S.D.
EXPERIMENTAL ENDPOINT: AUC(0-t) (ng·h/mL)
Report only the number, with the unit ng·h/mL understood.

// AUC(0-t) value for C=CCn1nc(C)c2c(C(C)C)cc(NNC(=O)Nc3cc(Cl)nc(Cl)c3)nc21 : 66

---

assay: Blood concentrations and pharmacokinetics after 1 mg/kg i.v. in mice; format: in vivo, mouse; conditions: mouse, in vivo, iv, 1 mg/kg, mouse blood, mean, read-out: MRT0-tlast, Mean S.D.
EXPERIMENTAL ENDPOINT: MRT last (min)
Report only the number, with the unit min understood.

// MRT last value for Cc1nn(C)c2nc(NNC(=O)Nc3cc(Cl)nc(Cl)c3)cc(C(C)C)c12 : 33.9

---

assay: Blood concentrations and pharmacokinetics after 1 mg/kg i.v. in mice; format: in vivo, mouse; conditions: mouse, whole blood, iv, 1 mg/kg, mouse, 0.25 h, mean of 3 mice, read-out: Blood Concentrations, Mean S.D.
EXPERIMENTAL ENDPOINT: concentration at 0.25 h (ng/mL)
Report only the number, with the unit ng/mL understood.

// concentration at 0.25 h value for C=CCn1nc(C)c2c(C(C)C)cc(NNC(=O)Nc3cc(Cl)nc(Cl)c3)nc21 : 48.6

---

experiment: Blood concentrations and pharmacokinetics after 1 mg/kg i.v. in mice; type: in vivo, mouse; conditions: mouse, in vivo, iv, 1 mg/kg, mouse blood, mean, read-out: Vss, Mean S.D.
EXPERIMENTAL ENDPOINT: Vd
Answer with the figure and its unit, nothing else.

// Vd value for Cc1nn(C)c2nc(NNC(=O)Nc3cc(Cl)nc(Cl)c3)cc(C(C)C)c12 [JTE013] : 21.9 L/kg

---

experiment: Blood concentrations and pharmacokinetics after 1 mg/kg i.v. in mice; assay type: in vivo, mouse; conditions: mouse, whole blood, iv, 1 mg/kg, mouse blood, mean, read-out: Vss, Mean S.D.
EXPERIMENTAL ENDPOINT: Vd (L/kg)
Report only the number, with the unit L/kg understood.

// Vd value for C=CCn1nc(C)c2c(C(C)C)cc(NNC(=O)Nc3cc(Cl)nc(Cl)c3)nc21 : 157

---

assay: Microsomal intrinsic clearance; conditions: mouse, microsomes, NADPH-free Clint (microsomal intrinsic clearance), mouse microsomes, test conc. 1 μM
EXPERIMENTAL ENDPOINT: microsomal CLint at 1 μM (µL/min/mg)
Report only the number, with the unit µL/min/mg understood.

// microsomal CLint at 1 μM value for Cc1nn(C)c2nc(NNC(=O)Nc3cc(Cl)nc(Cl)c3)cc(C(C)C)c12 : 22

---

Assay: Blood concentrations and pharmacokinetics after 1 mg/kg i.v. in mice
Format: in vivo, mouse
Conditions: mouse, in vivo, iv, 1 mg/kg, mouse blood, individual mice, read-out: MRT0-tlast
Experimental: 1 mg/kg of the compound was injected by IV and blood was withdrawn at the times in table 1. The amount of starting compound was quantified by a standard curve using MS/MS determinations.
EXPERIMENTAL ENDPOINT: MRT last (min)
Report only the number, with the unit min understood.

// MRT last value for Cc1nn(C)c2nc(NNC(=O)Nc3cc(Cl)nc(Cl)c3)cc(C(C)C)c12 : 28.3
